Data provenance is ChEMBL document CHEMBL2062375.

assay: Half life in Sprague-Dawley rat at 1 mg/kg, iv; assay type: ADME, organism-based; design: dose 1 mg/kg, route intravenous; conditions: in vivo
endpoint_label: half-life (min)
Reply with just the number (in min).

Form field: reported half-life of COc1c(Nc2ncc(Cl)c(N[C@H]3[C@@H](C(N)=O)[C@@H]4C=C[C@H]3C4)n2)ccc2c1CC[C@@H](N1CCOCC1)CC2
54

---

assay: Oral bioavailability in Sprague-Dawley rat at 10 mg/kg; format: ADME, organism-based; conditions: in vivo
endpoint_label: bioavailability
Express the reported value numerically, then name its unit.

Form field: reported bioavailability of COc1c(Nc2ncc(Cl)c(N[C@H]3[C@@H](C(N)=O)[C@@H]4C=C[C@H]3C4)n2)ccc2c1CC[C@@H](N1CCOCC1)CC2
50%

---

assay: Drug level in SCID/beige mouse tumor xenografted with human KARPAS299 cells expressing NPM-ALK at 30 mg/kg, po bid after 2 hrs post last dose by LC-MS/MS analysis; type: ADME, organism-based, Neoplasm, KARPAS-299; set-up: dose 30 mg/kg, route oral; settings: read-out: Drug uptake
endpoint_label: concentration at 2 h
Express the reported value numerically, then name its unit.

Form field: reported concentration at 2 h of COc1c(Nc2ncc(Cl)c(N[C@H]3[C@@H](C(N)=O)[C@@H]4C=C[C@H]3C4)n2)ccc2c1CC[C@@H](N1CCOCC1)CC2
4040 ng/g

---

test: Drug level in SCID mouse tumor xenografted with human KARPAS299 cells expressing NPM-ALK at 30 mg/kg, po after 6 hrs by LC-MS/MS analysis; type: ADME, organism-based, Neoplasm, KARPAS-299; parameters: dose 30 mg/kg, route oral; conditions: read-out: Drug uptake
endpoint_label: concentration at 6 h (ng/g)
Reply with just the number (in ng/g).

Form field: reported concentration at 6 h of COc1c(Nc2ncc(Cl)c(N[C@H]3[C@@H](C(N)=O)[C@@H]4C=C[C@H]3C4)n2)ccc2c1CC[C@@H](N1CCOCC1)CC2
2870

---

test: Cmax in Beagle dog at 10 mg/kg, po; format: ADME, organism-based, Canis lupus familiaris; parameters: dose 10 mg/kg, route oral; conditions: in vivo
endpoint_label: Cmax (ng/mL)
Reply with just the number (in ng/mL).

Form field: reported Cmax of COc1c(Nc2ncc(Cl)c(N[C@H]3[C@@H](C(N)=O)[C@@H]4C=C[C@H]3C4)n2)ccc2c1CC[C@@H](N1CCOCC1)CC2
427

---

target: ALK tyrosine kinase receptor (Homo sapiens, UniProt Q9UM73); test: Inhibition of ALK tyrosine phosphorylation in human Karpas-299 cells after 2 hrs in presence of mouse plasma; type: cell-based
Sequence (Q9UM73 whole entry): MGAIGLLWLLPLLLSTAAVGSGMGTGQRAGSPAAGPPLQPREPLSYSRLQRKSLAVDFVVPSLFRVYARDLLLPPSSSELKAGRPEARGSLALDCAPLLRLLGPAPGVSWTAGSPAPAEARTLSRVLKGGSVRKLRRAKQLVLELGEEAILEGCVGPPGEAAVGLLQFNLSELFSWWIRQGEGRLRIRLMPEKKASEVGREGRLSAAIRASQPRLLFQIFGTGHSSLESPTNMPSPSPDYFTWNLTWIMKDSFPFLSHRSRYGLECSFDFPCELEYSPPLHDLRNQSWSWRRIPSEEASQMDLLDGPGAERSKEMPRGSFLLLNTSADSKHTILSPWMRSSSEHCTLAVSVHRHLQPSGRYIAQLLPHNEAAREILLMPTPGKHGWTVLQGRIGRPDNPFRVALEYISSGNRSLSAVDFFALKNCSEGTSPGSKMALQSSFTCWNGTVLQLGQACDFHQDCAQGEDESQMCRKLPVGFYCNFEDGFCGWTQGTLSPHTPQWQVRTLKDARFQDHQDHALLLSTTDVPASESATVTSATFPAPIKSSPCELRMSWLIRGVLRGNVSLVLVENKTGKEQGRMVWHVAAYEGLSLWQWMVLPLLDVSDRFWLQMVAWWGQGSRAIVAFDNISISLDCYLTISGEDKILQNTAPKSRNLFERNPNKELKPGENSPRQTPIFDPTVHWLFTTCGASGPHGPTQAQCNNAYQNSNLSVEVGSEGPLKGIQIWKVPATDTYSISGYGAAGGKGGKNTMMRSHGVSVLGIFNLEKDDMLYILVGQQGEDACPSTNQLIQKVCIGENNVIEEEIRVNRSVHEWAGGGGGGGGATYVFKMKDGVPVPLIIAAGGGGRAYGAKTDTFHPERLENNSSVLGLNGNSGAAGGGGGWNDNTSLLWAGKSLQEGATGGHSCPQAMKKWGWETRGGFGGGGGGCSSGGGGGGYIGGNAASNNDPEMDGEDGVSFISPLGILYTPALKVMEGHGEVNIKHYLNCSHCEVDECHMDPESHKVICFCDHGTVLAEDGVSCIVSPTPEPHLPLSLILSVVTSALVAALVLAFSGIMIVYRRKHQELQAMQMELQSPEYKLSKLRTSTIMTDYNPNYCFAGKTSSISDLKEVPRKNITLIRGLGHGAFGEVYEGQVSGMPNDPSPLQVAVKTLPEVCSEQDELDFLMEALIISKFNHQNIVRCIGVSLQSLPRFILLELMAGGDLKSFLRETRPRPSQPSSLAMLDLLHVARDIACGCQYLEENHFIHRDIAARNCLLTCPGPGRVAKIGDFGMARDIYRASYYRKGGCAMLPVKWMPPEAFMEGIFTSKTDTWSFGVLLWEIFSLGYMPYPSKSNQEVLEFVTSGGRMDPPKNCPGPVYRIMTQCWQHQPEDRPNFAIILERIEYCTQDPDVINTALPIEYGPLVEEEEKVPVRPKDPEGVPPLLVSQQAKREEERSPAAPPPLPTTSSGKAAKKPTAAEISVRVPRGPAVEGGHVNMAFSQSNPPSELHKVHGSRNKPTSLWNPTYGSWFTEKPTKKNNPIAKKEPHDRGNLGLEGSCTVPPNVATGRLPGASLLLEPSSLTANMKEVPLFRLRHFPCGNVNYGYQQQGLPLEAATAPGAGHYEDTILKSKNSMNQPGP
Measured IC50, listed per entry.
Reply with just the number (in nM).

Some compounds with recorded IC50:
CCN1C(=O)CCCc2c1ccc(Nc1ncc(Cl)c(N[C@H]3[C@@H](C(N)=O)[C@@H]4C=C[C@H]3C4)n1)c2OC : 45
COc1c(Nc2ncc(Cl)c(N[C@H]3[C@@H](C(N)=O)[C@@H]4C=C[C@H]3C4)n2)ccc2c1CC[C@H](N1CCOCC1)CC2 : 120

Form field: reported IC50 of COc1c(Nc2ncc(Cl)c(N[C@H]3[C@@H](C(N)=O)[C@@H]4C=C[C@H]3C4)n2)ccc2c1CC[C@@H](N1CCOCC1)CC2
20

---

test: Volume of distribution in CD-1 mouse at 1 mg/kg, iv; type: ADME, organism-based; design: dose 1 mg/kg, route intravenous; conditions: in vivo
endpoint_label: Vd (L/kg)
Reply with just the number (in L/kg).

Form field: reported Vd of COc1c(Nc2ncc(Cl)c(N[C@H]3[C@@H](C(N)=O)[C@@H]4C=C[C@H]3C4)n2)ccc2c1CC[C@@H](N1CCOCC1)CC2
1.8
